Reference for the values: ChEMBL document CHEMBL1817551

Give measured IC50 for each item. Keep answers brief.
Molecular target: Acetyl-CoA carboxylase 2 (Homo sapiens, UniProt O00763)
Sequence (O00763 whole entry): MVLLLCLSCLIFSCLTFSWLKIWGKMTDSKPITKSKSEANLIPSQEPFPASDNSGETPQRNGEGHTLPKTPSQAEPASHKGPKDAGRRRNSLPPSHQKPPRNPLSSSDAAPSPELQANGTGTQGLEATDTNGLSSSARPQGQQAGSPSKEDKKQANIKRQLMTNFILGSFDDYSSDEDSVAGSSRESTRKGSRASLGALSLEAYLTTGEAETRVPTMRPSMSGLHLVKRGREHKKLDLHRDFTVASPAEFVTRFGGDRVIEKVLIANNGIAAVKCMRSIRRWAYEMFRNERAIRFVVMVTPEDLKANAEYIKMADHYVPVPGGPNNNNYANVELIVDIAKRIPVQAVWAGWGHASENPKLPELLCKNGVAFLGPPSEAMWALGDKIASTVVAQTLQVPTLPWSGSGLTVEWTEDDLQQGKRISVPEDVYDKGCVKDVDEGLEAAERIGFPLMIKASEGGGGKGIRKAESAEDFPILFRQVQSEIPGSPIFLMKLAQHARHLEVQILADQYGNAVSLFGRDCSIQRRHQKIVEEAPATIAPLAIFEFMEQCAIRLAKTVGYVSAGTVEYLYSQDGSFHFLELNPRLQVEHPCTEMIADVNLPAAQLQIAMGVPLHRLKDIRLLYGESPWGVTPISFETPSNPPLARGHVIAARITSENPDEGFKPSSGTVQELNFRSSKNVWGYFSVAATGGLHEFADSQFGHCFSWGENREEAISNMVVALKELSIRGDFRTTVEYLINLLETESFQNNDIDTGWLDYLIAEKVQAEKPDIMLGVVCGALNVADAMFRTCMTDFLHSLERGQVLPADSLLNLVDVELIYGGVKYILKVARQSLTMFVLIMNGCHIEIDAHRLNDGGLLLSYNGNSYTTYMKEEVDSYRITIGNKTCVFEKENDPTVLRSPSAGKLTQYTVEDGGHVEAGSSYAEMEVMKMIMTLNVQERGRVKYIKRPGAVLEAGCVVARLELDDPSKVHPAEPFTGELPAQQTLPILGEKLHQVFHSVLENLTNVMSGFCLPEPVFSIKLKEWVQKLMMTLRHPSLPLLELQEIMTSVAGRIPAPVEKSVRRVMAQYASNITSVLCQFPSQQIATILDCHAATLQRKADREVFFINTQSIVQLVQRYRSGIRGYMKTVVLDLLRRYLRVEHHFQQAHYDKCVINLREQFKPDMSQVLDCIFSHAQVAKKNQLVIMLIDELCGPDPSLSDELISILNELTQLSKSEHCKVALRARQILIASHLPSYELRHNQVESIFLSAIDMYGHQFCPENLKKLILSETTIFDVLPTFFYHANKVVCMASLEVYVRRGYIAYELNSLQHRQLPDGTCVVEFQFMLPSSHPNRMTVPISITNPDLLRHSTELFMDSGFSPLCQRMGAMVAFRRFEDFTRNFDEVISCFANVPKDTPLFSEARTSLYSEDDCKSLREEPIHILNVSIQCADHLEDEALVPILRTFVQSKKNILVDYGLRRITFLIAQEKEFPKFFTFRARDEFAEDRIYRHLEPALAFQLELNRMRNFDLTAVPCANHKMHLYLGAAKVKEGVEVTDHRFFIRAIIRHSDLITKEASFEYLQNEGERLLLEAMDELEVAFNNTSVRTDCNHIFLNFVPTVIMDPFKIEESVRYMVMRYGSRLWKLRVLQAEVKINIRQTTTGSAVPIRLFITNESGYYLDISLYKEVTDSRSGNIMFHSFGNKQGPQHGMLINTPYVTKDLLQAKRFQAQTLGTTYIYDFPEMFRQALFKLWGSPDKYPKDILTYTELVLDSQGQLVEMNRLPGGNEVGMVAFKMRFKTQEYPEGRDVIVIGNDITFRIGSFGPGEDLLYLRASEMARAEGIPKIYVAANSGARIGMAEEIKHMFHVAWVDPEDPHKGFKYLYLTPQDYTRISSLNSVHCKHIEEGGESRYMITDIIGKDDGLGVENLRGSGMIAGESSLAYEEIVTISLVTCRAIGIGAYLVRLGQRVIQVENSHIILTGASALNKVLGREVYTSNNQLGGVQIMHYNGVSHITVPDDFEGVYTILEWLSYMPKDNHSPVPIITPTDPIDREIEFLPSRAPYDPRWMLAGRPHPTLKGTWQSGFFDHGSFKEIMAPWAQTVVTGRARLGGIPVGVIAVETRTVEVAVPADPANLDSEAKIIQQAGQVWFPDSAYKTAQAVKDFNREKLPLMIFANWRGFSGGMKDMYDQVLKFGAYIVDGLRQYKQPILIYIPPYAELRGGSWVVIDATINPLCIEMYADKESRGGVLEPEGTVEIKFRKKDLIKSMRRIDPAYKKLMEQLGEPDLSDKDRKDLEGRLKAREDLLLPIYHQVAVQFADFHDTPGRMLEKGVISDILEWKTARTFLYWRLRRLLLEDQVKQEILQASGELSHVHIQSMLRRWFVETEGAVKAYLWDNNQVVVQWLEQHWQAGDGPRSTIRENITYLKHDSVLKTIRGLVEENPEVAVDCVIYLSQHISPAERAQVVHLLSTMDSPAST
Experiment: Inhibition of human recombinant his-tagged ACC2 expressed in baculovirus/Sf9 cell assessed as inorganic phosphate formation […] measured after 1.5 hrs by Malachite green reagent method
I'd appreciate it if you wrote the number followed by its unit.

Would you kindly share the measured IC50 for CC(C)(C)OC(=O)NC[C@H]1CC[C@H](CNC(=O)c2cc(N3CCC(CCN)CC3)nc3ccccc23)CC1 ?
89 nM

For the molecule CCOC(=O)NC[C@H]1CC[C@H](CNC(=O)c2cc(N3CCC(CCN(C)C)CC3)nc3ccccc23)CC1 , what IC50 is on record?
1400 nM

Quick check: IC50 of CC(C)(C)OC(=O)NC[C@H]1CC[C@H](CNS(=O)(=O)c2cc(-c3ccccc3)nc3ccccc23)CC1 ?
690 nM
